Where these numbers come from: ChEMBL document CHEMBL1201862

System: K562
Protocol notes: NCI tumour cell line growth inhibition, 48 h
Active and inactive are the calls of the source. Rule as the data show it: active = GI50 up to about 1.1 µM and inactive = higher.
Outcomes: y = active, n = inactive

> print(dat)
                                   compound  target.desc  classification
1  C=C1C(=O)O[C@H]2[C@H]1[C@H](OC(=O)/C(C)=C\C)C[C@]1(CO1)[C@@H]1[C@H](OC(C)=O)C=C(C)[C@]21O [EUPAROTIN ACETATE]         K562               y
2  CN1CN(c2ccccc2)C2(CCN(Cc3csc4ccccc34)CC2)C1=O         K562               n
3  COC(=O)Nc1nc2cc(C(=O)c3ccc[nH]3)ccc2[nH]1         K562               y
